Data provenance is patent US20110045046A1.

Examples of binders with documented pIC50 follow.
biological target: HLA-A*0202 (human); assay: MHC binding assay with purified MHC molecules
pIC50: −log10 of the molar value.
measured.property: pIC50

[[record]]
binder = "TLTSCNTSV (modifications not checked) […]"
measured_property = "pIC50"
observed_value = 8.09

[[record]]
binder = "TLTSCNTSV (modifications not checked) [TLT(GalNAc-O-S)CNTSV]"
measured_property = "pIC50"
observed_value = 7.82

